System: T-Rex 293 cell line SC cells lacking increased expression of progesterone receptor isoform B protein
RUN_DESCRIPTION: Cellular growth inhibition, T-Rex 293 SC cells without doxycycline, Example 45
Type: cell-based
EXPERIMENTAL_SETUP: T-Rex 293 SC cells not exposed to doxycycline, 72 hours treatment, CellTiter-Glo 2.0

>  <MOLECULE>
Cc1sc2c(c1C)C(c1ccc(CC3CN(CC4CCN(c5ncc(C(=O)N[C@H]6C(C)(C)[C@H](Oc7ccc(C#N)c(Cl)c7)C6(C)C)cn5)CC4)C3)cc1)=N[C@@H](Cc1ncco1)c1nnc(C)n1-2

>  <GI50>
< 500 nM

$$$$
>  <MOLECULE>
Cc1sc2c(c1C)C(c1ccc(Cl)cc1)=N[C@@H](CC(=O)NCCOCCOCCOCCOCCOCCOCCN(C)c1ncc(C(=O)N[C@H]3C(C)(C)[C@H](Oc4ccc(C#N)c(Cl)c4)C3(C)C)cn1)c1nnc(C)n1-2

>  <GI50>
1500 to 3000 nM

$$$$
>  <MOLECULE>
Cc1sc2c(c1C)C(c1ccc(C3CC3C3CC4(CCN(c5ncc(C(=O)N[C@H]6C(C)(C)[C@H](Oc7ccc(C#N)c(Cl)c7)C6(C)C)cn5)CC4)C3)cc1)=N[C@@H](Cc1ncco1)c1nnc(C)n1-2 (stereo partly shown)

>  <GI50>
> 3000 nM

$$$$
>  <MOLECULE>
CCNC(=O)C[C@@H]1N=C(c2ccc(OCCOCCOC3CCN(c4ncc(C(=O)N[C@H]5C(C)(C)[C@H](Oc6ccc(C#N)c(Cl)c6)C5(C)C)cn4)CC3)cc2)c2c(sc(C)c2C)-n2c(C)nnc21

>  <GI50>
< 500 nM

$$$$

* * *

Listed below: GI50 values for each entry.
System: T-Rex 293 cell line SC3 cells lacking increased expression of androgen receptor protein
RUN_DESCRIPTION: Cellular growth inhibition, T-Rex 293 SC3 cells without doxycycline, CellTiter-Glo
Format: cell-based
EXPERIMENTAL_SETUP: 72 h, T-Rex 293 SC3 cells not exposed to doxycycline, CellTiter-Glo 2.0
QUANTITY_KIND: GI50

>  <COMPOUND>
Cc1sc2c(c1C)C(c1ccc(NCC3(F)CCN(c4ncc(C(=O)N[C@H]5C(C)(C)[C@H](Oc6ccc(C#N)c(Cl)c6)C5(C)C)cn4)CC3)cc1)=NC(Cc1ncco1)c1nnc(C)n1-2 (stereo partly shown) [Compound I-634]

>  <ASSAYED_TARGET>
T-Rex 293 cell line SC3 cells lacking increased expression of androgen receptor protein

>  <TEST_VALUE>
> 3000 nM

$$$$
>  <COMPOUND>
Cc1sc2c(c1C)C(c1ccc([C@H]3C[C@H]([C@@H]4CCCN(c5ncc(C(=O)N[C@H]6C(C)(C)[C@H](Oc7ccc(C#N)c(Cl)c7)C6(C)C)cn5)C4)C3)cc1)=N[C@@H](Cc1ncco1)c1nnc(C)n1-2 [Compound I-422]

>  <ASSAYED_TARGET>
T-Rex 293 cell line SC3 cells lacking increased expression of androgen receptor protein

>  <TEST_VALUE>
> 3000 nM

$$$$
>  <COMPOUND>
Cc1sc2c(c1C)C(c1ccc(C(=O)N3CCN(CCc4ncc(C(=O)N[C@H]5C(C)(C)[C@H](Oc6ccc(C#N)c(Cl)c6)C5(C)C)cn4)CC3)cc1)=N[C@H](Cc1ncco1)c1nnc(C)n1-2 [Compound I-357]

>  <ASSAYED_TARGET>
T-Rex 293 cell line SC3 cells lacking increased expression of androgen receptor protein

>  <TEST_VALUE>
> 3000 nM

$$$$
>  <COMPOUND>
Cc1sc2c(c1C)C(c1ccc(NCC(=O)N3CCC(c4ncc(C(=O)N[C@H]5C(C)(C)[C@H](Oc6ccc(C#N)c(Cl)c6)C5(C)C)cn4)CC3)cc1)=N[C@H](Cc1ncco1)c1nnc(C)n1-2 [Compound I-275]

>  <ASSAYED_TARGET>
T-Rex 293 cell line SC3 cells lacking increased expression of androgen receptor protein

>  <TEST_VALUE>
< 500 nM

$$$$
